Entry source: ChEMBL document CHEMBL2417402

biological target: UniProt Q13547; test: Inhibition of HDAC1 (unknown origin) using carboxyfluorescein (FAM)-labeled acetylated peptide as substrate after 17 hrs by fluorescence-based electrophoretic assay
Sequence (Q13547 whole entry): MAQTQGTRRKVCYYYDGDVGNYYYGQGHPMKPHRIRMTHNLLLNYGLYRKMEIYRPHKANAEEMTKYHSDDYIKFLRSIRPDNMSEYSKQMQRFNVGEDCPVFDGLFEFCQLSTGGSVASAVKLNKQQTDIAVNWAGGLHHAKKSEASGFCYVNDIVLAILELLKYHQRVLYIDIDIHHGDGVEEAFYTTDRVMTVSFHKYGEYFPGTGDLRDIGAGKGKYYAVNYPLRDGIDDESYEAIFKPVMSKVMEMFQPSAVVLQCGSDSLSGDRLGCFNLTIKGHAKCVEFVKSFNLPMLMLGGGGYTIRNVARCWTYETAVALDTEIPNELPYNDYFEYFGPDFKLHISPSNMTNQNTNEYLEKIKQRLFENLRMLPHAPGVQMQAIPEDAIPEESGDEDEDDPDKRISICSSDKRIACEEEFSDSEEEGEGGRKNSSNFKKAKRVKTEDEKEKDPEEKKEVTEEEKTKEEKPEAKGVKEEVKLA
Quantity: IC50 (nM)
Respond numerically; units are nM and should not be typed.

Record lookup: for UniProt Q13547, what IC50 belongs to CC(C)(C)OC(=O)Nc1ccc(-c2cc(C(=O)NCCCCCCC(=O)NO)no2)cc1 ?
12.7

* * *

biological target: Histone deacetylase 5 (Homo sapiens, UniProt Q9UQL6)
A collection of molecules and their measured pIC50
Please keep in mind that pIC50 is minus log10 of the molar concentration; only the number is needed.

O=C(CS)NCCCCCC(=O)Nc1cccc2cccnc12    6.05

--- query ---
Record lookup: for Histone deacetylase 5 (Homo sapiens, UniProt Q9UQL6), what pIC50 belongs to Cc1onc(-c2ccccc2)c1C(=O)NCCCCCNC(=O)CS ?
4.82

* * *

target: Histone deacetylase 3 (Homo sapiens); assay: Inhibition of HDAC3 (unknown origin) using carboxyfluorescein (FAM)-labeled acetylated peptide as substrate after 17 hrs by fluorescence-based electrophoretic assay
Quantity: pIC50
Please keep in mind that pIC50 is minus log10 of the molar concentration; only the number is needed.

Give its pIC50 value. Item: CC(C)(C)OC(=O)Nc1ccc(-c2cc(C(=O)NCCCCCCC(=O)NO)no2)cc1
6.72

* * *

Target: Histone deacetylase 8 (Homo sapiens, UniProt Q9BY41)
Sequence (Q9BY41 whole entry): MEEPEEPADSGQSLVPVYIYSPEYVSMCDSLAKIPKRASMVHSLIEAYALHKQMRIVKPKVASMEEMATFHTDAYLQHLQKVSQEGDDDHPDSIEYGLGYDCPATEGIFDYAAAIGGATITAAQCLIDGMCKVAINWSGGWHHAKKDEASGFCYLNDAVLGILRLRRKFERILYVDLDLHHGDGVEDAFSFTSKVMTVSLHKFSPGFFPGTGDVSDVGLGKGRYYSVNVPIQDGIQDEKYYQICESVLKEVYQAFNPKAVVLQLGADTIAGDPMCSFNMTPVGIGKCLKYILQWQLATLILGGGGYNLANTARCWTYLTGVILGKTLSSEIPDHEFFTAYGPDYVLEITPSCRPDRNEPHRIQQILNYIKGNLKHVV
Quantity: Kd (µM)
Respond numerically; units are µM and should not be typed.

Record lookup: for Histone deacetylase 8 (Homo sapiens, UniProt Q9BY41), what Kd belongs to CCCCOc1ccc(CC(=O)NO)cc1 ?
235

* * *

target: Histone deacetylase 4 (Homo sapiens); test: Inhibition of HDAC4 (unknown origin)
Quantity: IC50 (µM)
Respond numerically; units are µM and should not be typed.

Give its IC50 value. Item: Cc1onc(-c2ccccc2)c1C(=O)NCCCCCNC(=O)CS
10

* * *

target: Protein deacetylase HDAC6 (Homo sapiens, UniProt Q9UBN7)
Sequence (Q9UBN7 whole entry): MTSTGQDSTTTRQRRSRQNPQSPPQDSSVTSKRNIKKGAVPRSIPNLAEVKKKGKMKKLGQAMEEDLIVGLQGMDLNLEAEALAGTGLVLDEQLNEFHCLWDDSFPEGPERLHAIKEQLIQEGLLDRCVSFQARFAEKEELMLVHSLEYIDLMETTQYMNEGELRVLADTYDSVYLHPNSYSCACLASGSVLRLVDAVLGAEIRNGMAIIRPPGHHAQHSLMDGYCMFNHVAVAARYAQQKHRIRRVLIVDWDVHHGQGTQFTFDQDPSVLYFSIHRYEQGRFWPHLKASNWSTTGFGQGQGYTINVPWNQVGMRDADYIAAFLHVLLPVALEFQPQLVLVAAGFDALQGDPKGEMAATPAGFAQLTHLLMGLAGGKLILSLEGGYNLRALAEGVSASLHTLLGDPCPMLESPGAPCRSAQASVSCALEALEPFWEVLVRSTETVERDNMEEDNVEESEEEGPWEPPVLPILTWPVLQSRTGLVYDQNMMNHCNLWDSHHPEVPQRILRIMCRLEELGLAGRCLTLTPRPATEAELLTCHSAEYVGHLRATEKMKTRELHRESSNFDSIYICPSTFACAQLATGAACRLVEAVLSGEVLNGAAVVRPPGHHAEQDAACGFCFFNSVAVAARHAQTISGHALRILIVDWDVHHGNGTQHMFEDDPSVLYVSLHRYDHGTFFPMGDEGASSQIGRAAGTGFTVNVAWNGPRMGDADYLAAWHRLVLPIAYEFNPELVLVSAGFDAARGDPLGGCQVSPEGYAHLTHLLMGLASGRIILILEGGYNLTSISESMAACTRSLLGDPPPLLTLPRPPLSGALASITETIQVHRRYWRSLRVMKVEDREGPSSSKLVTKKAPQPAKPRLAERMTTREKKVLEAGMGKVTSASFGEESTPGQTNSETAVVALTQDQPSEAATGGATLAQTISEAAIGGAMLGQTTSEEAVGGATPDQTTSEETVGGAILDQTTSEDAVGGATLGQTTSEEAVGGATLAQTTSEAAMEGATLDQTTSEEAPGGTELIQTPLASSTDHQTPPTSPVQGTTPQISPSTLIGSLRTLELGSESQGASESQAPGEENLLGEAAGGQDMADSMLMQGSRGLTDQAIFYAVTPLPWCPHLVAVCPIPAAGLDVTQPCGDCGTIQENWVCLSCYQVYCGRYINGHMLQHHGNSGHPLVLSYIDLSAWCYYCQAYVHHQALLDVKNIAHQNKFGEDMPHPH
Quantity: Kd (µM)
Respond numerically; units are µM and should not be typed.

Record lookup: for Protein deacetylase HDAC6 (Homo sapiens, UniProt Q9UBN7), what Kd belongs to CCCCOc1ccc(CC(=O)NO)cc1 ?
10.7

* * *

molecular target: Histone deacetylase 2 (Homo sapiens); assay: Inhibition of HDAC2 (unknown origin)
Sequence (Q92769 whole entry): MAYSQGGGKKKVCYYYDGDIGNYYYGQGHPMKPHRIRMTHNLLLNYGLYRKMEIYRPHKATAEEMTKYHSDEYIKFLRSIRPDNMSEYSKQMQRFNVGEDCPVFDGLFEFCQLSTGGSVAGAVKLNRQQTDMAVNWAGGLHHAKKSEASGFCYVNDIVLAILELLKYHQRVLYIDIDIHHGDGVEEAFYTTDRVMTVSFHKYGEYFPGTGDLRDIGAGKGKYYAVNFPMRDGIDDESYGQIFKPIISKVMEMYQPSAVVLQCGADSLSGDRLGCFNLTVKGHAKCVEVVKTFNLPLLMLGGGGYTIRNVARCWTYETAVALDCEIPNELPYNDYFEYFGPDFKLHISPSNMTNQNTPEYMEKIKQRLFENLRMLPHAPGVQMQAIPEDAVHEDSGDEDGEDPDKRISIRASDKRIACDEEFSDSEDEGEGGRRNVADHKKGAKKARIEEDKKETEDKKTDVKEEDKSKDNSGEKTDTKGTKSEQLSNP
A collection of molecules and their measured pIC50
Please keep in mind that pIC50 is minus log10 of the molar concentration; only the number is needed.

O=C(CCCCCNC(=O)NC12CC3CC(CC(C3)C1)C2)NO    5.59
Cc1onc(-c2ccccc2)c1C(=O)NCCCCCNC(=O)CS    4.55

--- query ---
Give its pIC50 value. Item: O=C(CS)NCCCCCC(=O)Nc1cccc2cccnc12
5.90

* * *

biological target: Polyamine deacetylase HDAC10 (Homo sapiens, UniProt Q969S8); experiment: Inhibition of C-terminal deleted 38 amino acids (632 to 669) HDAC10 (unknown origin) expressed in sf9 cells using carboxyfluorescein (FAM)-labeled acetylated peptide as substrate after 17 hrs by fluorescence-based electrophoretic assay
Sequence (Q969S8 whole entry, the tested form may be a part): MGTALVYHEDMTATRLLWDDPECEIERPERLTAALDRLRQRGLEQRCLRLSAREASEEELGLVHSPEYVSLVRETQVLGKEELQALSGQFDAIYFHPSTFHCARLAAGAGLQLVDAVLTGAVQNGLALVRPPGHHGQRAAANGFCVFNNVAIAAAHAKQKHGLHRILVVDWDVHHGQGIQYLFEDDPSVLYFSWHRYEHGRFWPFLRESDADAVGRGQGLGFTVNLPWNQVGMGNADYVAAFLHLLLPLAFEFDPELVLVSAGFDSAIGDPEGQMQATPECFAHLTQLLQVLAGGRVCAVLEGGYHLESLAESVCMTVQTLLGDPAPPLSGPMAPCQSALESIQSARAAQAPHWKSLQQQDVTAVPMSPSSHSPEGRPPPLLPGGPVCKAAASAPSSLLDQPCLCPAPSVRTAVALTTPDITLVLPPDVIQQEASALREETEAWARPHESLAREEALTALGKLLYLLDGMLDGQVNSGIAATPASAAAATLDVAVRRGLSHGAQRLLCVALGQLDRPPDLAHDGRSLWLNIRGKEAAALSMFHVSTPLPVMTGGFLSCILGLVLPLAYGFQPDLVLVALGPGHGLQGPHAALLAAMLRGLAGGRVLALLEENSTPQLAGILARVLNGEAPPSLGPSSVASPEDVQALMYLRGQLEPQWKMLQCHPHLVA
A collection of compounds and their measured IC50
Respond numerically; units are µM and should not be typed.

O=C(CCCCCCC(=O)Nc1ccc(-c2ccccc2NC(=O)[C@@H]2CCCN2)cc1)NO    0.07

--- query ---
Give its IC50 value. Item: CC(C)(C)OC(=O)Nc1cccc(-c2csc(NC(=O)CCCCCCC(=O)NO)n2)c1
0.006

* * *

target: Histone deacetylase 1 (Rattus norvegicus, UniProt Q4QQW4)
Sequence (Q4QQW4 whole entry): as the sequence (Q13547 whole entry) above, with R8K, D399E, E424D, L481M counted along it
Quantity: IC50 (µM)
Respond numerically; units are µM and should not be typed.

Give its IC50 value. Item: COC(=O)[C@H](Cc1ccccc1)NC(=O)CCCCCCCCC(=O)NO
28.6

* * *

target: Protein deacetylase HDAC6 (Homo sapiens); test: Inhibition of human recombinant HDAC6 using Ac-Leu-Gly-(AMC)Lys-Ac as substrate
Quantity: pIC50
Please keep in mind that pIC50 is minus log10 of the molar concentration; only the number is needed.

Give its pIC50 value. Item: O=C(NC1=CC(=O)c2ccccc2C1=O)c1ccccc1
5.26

* * *

A collection of compounds and their measured IC50
biological target: UniProtKB Q13547; experiment: Inhibition of His-6-tagged full length HDAC1 (unknown origin) expressed in sf9 cells using carboxyfluorescein (FAM)-labeled acetylated peptide as substrate after 17 hrs by fluorescence-based electrophoretic assay

CC(C)(C)OC(=O)Nc1cccc(-c2csc(NC(=O)CCCCCCC(=O)NO)n2)c1    4 nM

--- query ---
Give its IC50 value. Item: O=C(CCCCCCC(=O)Nc1ccc(-c2ccccc2NC(=O)[C@@H]2CCCN2)cc1)NO
52 nM

* * *

biological target: Polyamine deacetylase HDAC10 (Homo sapiens); experiment: Inhibition of HDAC10 (unknown origin); details: read-out: Kd(app)
Quantity: Kd (µM)
Respond numerically; units are µM and should not be typed.

Record lookup: for Polyamine deacetylase HDAC10 (Homo sapiens), what Kd belongs to CCCCOc1ccc(CC(=O)NO)cc1 ?
12.3

* * *

target: Protein deacetylase HDAC6 (Homo sapiens, UniProt Q9UBN7); assay: Inhibition of HDAC6 (unknown origin)
Quantity: IC50 (nM)
Respond numerically; units are nM and should not be typed.

Some solved cases for reference:
O=C(CS)NCCCCCC(=O)Nc1cccc2cccnc12    21
O=C(CCCCCNC(=O)NC12CC3CC(CC(C3)C1)C2)NO    73
Cc1onc(-c2ccccc2)c1C(=O)NCCCCCNC(=O)CS    260
Cc1onc(-c2ccccc2)c1C(=O)NCCCCCNC(=O)[C@@H](C)S    280
COC(=O)[C@H](Cc1ccccn1)NC(=O)CCCCCCCC(=O)NO    4060

--- query ---
Record lookup: for Protein deacetylase HDAC6 (Homo sapiens, UniProt Q9UBN7), what IC50 belongs to COC(=O)[C@@H](Cc1ccccn1)NC(=O)CCCCCCCC(=O)NO ?
4010

* * *

biological target: Histone deacetylase 7 (Homo sapiens)
Sequence (Q8WUI4 whole entry): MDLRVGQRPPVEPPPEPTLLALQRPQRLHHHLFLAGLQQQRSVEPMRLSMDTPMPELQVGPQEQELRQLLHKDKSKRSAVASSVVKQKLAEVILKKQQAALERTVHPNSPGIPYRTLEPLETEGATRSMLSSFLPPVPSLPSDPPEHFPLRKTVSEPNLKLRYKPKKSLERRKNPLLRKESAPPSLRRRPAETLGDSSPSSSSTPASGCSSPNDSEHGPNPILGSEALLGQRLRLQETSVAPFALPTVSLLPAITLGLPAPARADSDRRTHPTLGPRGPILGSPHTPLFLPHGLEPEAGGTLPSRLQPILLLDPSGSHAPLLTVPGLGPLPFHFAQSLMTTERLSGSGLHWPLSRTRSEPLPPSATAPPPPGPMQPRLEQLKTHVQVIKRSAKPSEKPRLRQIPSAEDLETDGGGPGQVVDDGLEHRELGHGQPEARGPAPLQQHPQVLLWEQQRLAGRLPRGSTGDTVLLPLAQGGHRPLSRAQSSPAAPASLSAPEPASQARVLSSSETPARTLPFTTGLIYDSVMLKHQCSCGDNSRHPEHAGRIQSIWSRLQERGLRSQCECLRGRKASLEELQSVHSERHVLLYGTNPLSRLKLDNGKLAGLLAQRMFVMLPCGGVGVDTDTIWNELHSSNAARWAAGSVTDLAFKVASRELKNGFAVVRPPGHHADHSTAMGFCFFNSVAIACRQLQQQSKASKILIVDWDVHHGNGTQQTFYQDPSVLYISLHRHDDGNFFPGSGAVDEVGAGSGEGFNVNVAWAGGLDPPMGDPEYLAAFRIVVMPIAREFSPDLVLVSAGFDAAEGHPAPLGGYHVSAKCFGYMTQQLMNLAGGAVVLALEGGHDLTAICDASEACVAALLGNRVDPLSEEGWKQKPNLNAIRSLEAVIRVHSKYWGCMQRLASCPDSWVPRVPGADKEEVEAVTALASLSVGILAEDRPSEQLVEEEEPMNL
Quantity: pIC50
Please keep in mind that pIC50 is minus log10 of the molar concentration; only the number is needed.

Give its pIC50 value. Item: O=C(CS)NCCCCCC(=O)Nc1cccc2cccnc12
5.56

* * *

biological target: Histone deacetylase 3 (Homo sapiens, UniProt O15379); experiment: Inhibition of HDAC3 (unknown origin)
Sequence (O15379 whole entry): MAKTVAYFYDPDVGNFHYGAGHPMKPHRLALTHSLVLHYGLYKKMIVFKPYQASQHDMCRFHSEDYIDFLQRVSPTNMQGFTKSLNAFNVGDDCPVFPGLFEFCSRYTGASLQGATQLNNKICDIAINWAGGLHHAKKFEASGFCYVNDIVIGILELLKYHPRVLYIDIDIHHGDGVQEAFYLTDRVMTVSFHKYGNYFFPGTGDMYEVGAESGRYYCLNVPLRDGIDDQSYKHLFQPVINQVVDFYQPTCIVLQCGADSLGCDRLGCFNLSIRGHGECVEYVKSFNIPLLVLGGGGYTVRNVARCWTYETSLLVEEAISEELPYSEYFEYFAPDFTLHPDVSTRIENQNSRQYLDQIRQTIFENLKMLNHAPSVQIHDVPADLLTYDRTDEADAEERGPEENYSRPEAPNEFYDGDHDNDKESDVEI
A collection of molecules and their measured pIC50
Please keep in mind that pIC50 is minus log10 of the molar concentration; only the number is needed.

O=C(CS)NCCCCCC(=O)Nc1cccc2cccnc12    5.88

Give its pIC50 value. Item: O=C(CCCCCNC(=O)NC12CC3CC(CC(C3)C1)C2)NO
5.81
